meta.source: the PolyMetriX glass transition set

Field: glass transition temperature. Provide a value for each of the molecules that follow.
# unit: °C | format: bare number

Query string: Fill in reported glass transition temperature for this entry: *Oc1ccc(C(C)(C)c2ccc(OC(=O)c3ccc(CC(*)=O)cc3)cc2)cc1 (repeat unit)
Result string: 85.00

Query string: Provide one value: measured glass transition temperature of *SC1CCCCC1* (repeat unit)
Result string: -43.00

Query string: For the molecule *NNC(=O)c1ccc(C(*)=O)cc1OCCCCC (repeat unit) , report glass transition temperature.
Result string: 234.00

Query string: For *c1ccc(Oc2cccc(N3C(=O)c4ccc(Oc5cccc6c(Oc7ccc8c(c7)C(=O)N(*)C8=O)cccc56)cc4C3=O)c2)cc1 (repeat unit) , write its glass transition temperature.
Result string: 235.00

Query string: Return glass transition temperature for the following molecule: *CC(*)C(=O)OCCCCCCOc1ccc(/C=N/c2ccc(OCCCCC)cc2)c(O)c1 (repeat unit)
Result string: 41.00

Query string: Look up and report measured glass transition temperature for this entry: */C=C/C1CC(*)C2C(=O)N(c3cc(C(F)(F)F)cc(C(F)(F)F)c3)C(=O)C12 (repeat unit)
Result string: 162.00

Query string: Could you please provide reported glass transition temperature for *CC(*)C(=O)OCCCCC (repeat unit) ? Thanks!
Result string: -57.00

Query string: Please indicate glass transition temperature recorded for *c1ccc(-c2nc(-c3cccc(-c4nnc(-c5ccccc5)c(*)n4)n3)nnc2-c2ccccc2)cc1 (repeat unit)
Result string: 260.00

Query string: Fill in reported glass transition temperature for this entry: *Oc1ccc(C(=O)OCCN(CCOC(=O)c2ccc(OC3(F)C(*)(F)C(F)(F)C3(F)F)cc2)c2ccc(/C=C/C3=CC(=C(C#N)C#N)CC(C)(C)C3)cc2)cc1 (repeat unit)
Result string: 143.00

Query string: Please report the measured glass transition temperature for */C=C/C1CC(*)C(C#N)([Si](C)(C)O[Si](C)(C)O[Si](C)(C)C)C1 (repeat unit)
Result string: 47.00

Query string: Please indicate glass transition temperature recorded for *c1ccc2c(c1)C(=O)N(c1cccc(Oc3ccc(N4C(=O)c5ccc(-c6c(-c7ccccc7)c(-c7ccccc7)c(-c7ccc(Oc8ccc(-c9c(-c%10ccccc%10)c(-c%10ccccc%10)c(*)c(-c%10ccccc%10)c9-c9ccccc9)cc8)cc7)c(-c7ccccc7)c6-c6ccccc6)cc5C4=O)cc3)c1)C2=O (repeat unit)
Result string: 309.00

Query string: Answer with the recorded glass transition temperature for the molecule listed here: *CCOCCOC(=O)CC(=O)O* (repeat unit)
Result string: -41.50

Query string: Supply reported glass transition temperature belonging to this molecule: *CCN(CCOC(=O)Nc1ccc(C)c(NC(=O)O*)c1)c1ccc(/N=N/c2ccc([N+](=O)[O-])cc2)cc1 (repeat unit)
Result string: 144.00

Query string: Please report the measured glass transition temperature for *Oc1ccc(NC(=O)c2cccc(C(=O)Nc3ccc(Oc4ccc(C5(c6ccc(*)cc6)CC6CCC5C6)cc4)cc3)c2)cc1 (repeat unit)
Result string: 256.00

Query string: Input *CCCCCCCCCOC(=O)Nc1ccc(C)c(NC(=O)O*)c1 (repeat unit) , output reported glass transition temperature.
Result string: 62.00
